target: PIM2 (Homo sapiens, UniProt Q9P1W9); construct: a mixture of lysates from five cancer cell lines; endogenous in cells; assay: Kinobeads competition binding: PIM2; conditions: target PIM2
Sequence (Q9P1W9 whole entry): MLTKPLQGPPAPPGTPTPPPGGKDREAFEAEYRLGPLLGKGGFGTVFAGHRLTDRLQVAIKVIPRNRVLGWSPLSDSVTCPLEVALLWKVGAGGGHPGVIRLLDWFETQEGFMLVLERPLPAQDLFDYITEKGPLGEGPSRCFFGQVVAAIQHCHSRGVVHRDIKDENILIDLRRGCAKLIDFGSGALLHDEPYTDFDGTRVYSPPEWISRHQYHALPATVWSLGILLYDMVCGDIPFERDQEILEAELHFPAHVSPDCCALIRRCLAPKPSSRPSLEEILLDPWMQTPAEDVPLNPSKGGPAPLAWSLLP
Recorded CATDS values for a group of compounds are listed next.
readout kind: CATDS

> print(dat)
                                   compound                         assay.target  test.value
1  CN(C)C/C=C/C(=O)Nc1cc2c(Nc3ccc(F)c(Cl)c3)ncnc2cc1O[C@H]1CCOC1 [Afatinib]  PIM2 (Homo sapiens, UniProt Q9P1W9)           0
2  CCN1CCN(Cc2ccc(Nc3ncc(F)c(-c4cc(F)c5nc(C)n(C(C)C)c5c4)n3)nc2)CC1 [Abemaciclib]  PIM2 (Homo sapiens, UniProt Q9P1W9)           0
3  Nc1ncnc2[nH]c(-c3ccccc3)nc12 [AH5015_KCGS]  PIM2 (Homo sapiens, UniProt Q9P1W9)           0
4  N#CC1(c2ccc(NC(=O)c3cccnc3NCc3ccncc3)cc2)CCCC1 [Apatinib]  PIM2 (Homo sapiens, UniProt Q9P1W9)           0
5  CCc1cc2c(cc1N1CCC(N3CCOCC3)CC1)C(C)(C)c1[nH]c3cc(C#N)ccc3c1C2=O [Alectinib]  PIM2 (Homo sapiens, UniProt Q9P1W9)           0
